In this section, each of the binders is paired with its reported IC50.
target: T1, mouse DLL4, full length, overexpressed on CHO cells (mouse, UniProt Q9JI71 27-686); test: FMAT, hNotch1-Fc on CHO-mDLL4, -HSA
T1 construct: whole, on cells; also called mDLL4; CHO-mDLL4
T1 sequence (Q9JI71 27-686): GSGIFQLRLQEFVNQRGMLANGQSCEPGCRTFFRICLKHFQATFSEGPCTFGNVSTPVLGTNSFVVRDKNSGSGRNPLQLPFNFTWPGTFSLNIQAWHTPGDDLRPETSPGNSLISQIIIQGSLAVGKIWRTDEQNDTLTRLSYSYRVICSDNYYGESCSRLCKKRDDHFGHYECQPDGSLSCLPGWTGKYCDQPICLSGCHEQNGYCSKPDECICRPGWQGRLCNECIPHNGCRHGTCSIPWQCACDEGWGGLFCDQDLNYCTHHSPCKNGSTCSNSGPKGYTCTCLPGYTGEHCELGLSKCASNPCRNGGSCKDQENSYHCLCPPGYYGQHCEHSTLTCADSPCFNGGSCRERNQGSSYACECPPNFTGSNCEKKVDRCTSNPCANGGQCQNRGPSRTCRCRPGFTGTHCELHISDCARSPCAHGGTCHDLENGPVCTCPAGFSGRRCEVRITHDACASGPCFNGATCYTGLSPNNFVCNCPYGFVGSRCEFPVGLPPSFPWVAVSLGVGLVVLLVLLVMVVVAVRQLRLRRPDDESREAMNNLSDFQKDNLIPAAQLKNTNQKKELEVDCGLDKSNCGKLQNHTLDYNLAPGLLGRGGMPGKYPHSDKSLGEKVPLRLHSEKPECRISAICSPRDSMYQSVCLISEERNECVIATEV
Please give a number only; it is taken to be in nM.

Find the recorded IC50 belonging to VEGFDLLBII013 (bispecific antibody, PEGylated at the Cys at position 15 of the 35 Gly-Ser linker, VEGFBII23B04 - 35GS(Cys15) - DLLBII129B05) EVQLVESGGGLVQTGDSLRLSCEVSGRTFSSYSMGWFRQAQGKEREFVVAISKGGYKYDSVSLEGRFTISKDNAKNTVYLQINSLKPEDTAVYYCASSRAYGSSRLRLADTYEYWGQGTQVTVSSGGGGSGGGGSGGGGCGGGGSGGGGSGGGGSGGGGSEVQLVESGGGLVQAGGSLRLSCAASGRTFSSYAMAWYRQAPGKEREYVAAIRWSGGTAYYADSVQGRFTISRDNAKNTVYLQMNSLKPEDTAVYYCANRAPDTRLAPYEYDHWGQGTQVTVSS and report it.
19.3

Find the recorded IC50 belonging to VEGFDLLBII012 (bispecific antibody, PEGylated at the Cys at position 15 of the 35 Gly-Ser linker, VEGFBII23B04 - 35GS(Cys15) - DLLBII136C07) EVQLVESGGGLVQTGDSLRLSCEVSGRTFSSYSMGWFRQAQGKEREFVVAISKGGYKYDSVSLEGRFTISKDNAKNTVYLQINSLKPEDTAVYYCASSRAYGSSRLRLADTYEYWGQGTQVTVSSGGGGSGGGGSGGGGCGGGGSGGGGSGGGGSGGGGSEVQLVESGGGLVQPGGSLRLSCAASGFTFGSYDMSWVRRSPGKGPEWVSSINSGGGSTYYADYVKGRFTISRDNAKNTLYLQMNSLKPEDTAVYYCAADRYIWARQGEYWGAYEYDYWGQGTQVTVSS and report it.
95.3

Find the recorded IC50 belonging to DLLBII136C07 (VHH, not shown: small tags and cut ends) VHH: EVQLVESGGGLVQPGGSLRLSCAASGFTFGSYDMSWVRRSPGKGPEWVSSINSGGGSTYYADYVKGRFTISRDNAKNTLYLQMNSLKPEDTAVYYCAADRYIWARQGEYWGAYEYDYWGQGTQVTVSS and report it.
16.4

Find the recorded IC50 belonging to DLLBII129B05 (VHH, not shown: small tags and cut ends) VHH: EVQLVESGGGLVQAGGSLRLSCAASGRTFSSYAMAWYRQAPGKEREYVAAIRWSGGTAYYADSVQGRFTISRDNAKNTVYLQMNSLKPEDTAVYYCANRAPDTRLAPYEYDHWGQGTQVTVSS and report it.
3
